Test system: MS2 coat protein
Experiment: apparent KD of MS2 coat protein; higher = weaker reporter binding
Conditions: Eterna round: R107; input ligand: tryptophan 2.4 mM
Each entry gets N if its apparent KD of MS2 coat protein stays under 20 nM, and Y if its apparent KD of MS2 coat protein is 20 nM or above.

// known answers, use as guide
UACAGCAGUACGGCCGCCACUCUAAGAUUGCGCGUUUAGGCCAUACAUGAGGAUCACCCAUGUCCGAGGACCGGGUACAGGAAUU [theeternabot_sameState_MS2_Trp_B_29] :: Y
AUCAUGGCCAUCGAUACCAGCUACAUGAGGAUCACCCAUGUAAACGGCCCGGUGAGAUGUAGCCCUUGGCAGCGAAGGGUCAAGG [Ratimatiqu] :: N
AUUCAUAACUGAAGGAGCGUGAUAUAAAUUUUUACAUGAGGAUCACCCAUGUUUCAUCGAUCACAGGUAGGUCGCAGAUUCUCAU [JR_SSArginiB_Sub012] :: Y
CUGUUUGUUUGGGUCUGUCAAAAGAACGAUACCAGCCGCAUUAUGGGCCCUUGGCAGCGUAGGACAUGAGGAUCACCCAUGUACG [theeternabot_exclusion_MS2_Theo_A_16] :: N

Record UGGUACAUGAGGAUCACCCAUGUUCCAGAUACCAGAUACCCGGUUAUCCCUUGGCAGCUGGUGUUACAUGAGGAUCACCCAUGUU [Exclusion Theophylline A GF16] ; criterion: apparent KD of MS2 coat protein no lower than 20 nM. Met?
Y

Record AACUGGGUUCGUGAUACCAGCUCACACAUGAGGAUCACCCAUGUAGUGGGUAAAAUGUGGAGCCCUUGGCAGCACUGUGACCACG [Esria] ; criterion: apparent KD of MS2 coat protein no lower than 20 nM. Met?
N

====

Provide the reported apparent KD of MS2 coat protein of each item.
System: MS2 coat protein
Test: apparent KD of MS2 coat protein; designed switch direction (-1 OFF switch, 1 ON switch): 1; higher = weaker reporter binding
Conditions: input ligand: none
Give bare numbers, in nM.

Solved entries:
CUGAGCAAUCGAGGAUAUCACGUCGAUUAGACGUGAGAAGGCGAUCAUAACAUGAGGAUCACCCAUGUAUUACAUGAAGCUCAG [SSNG1/4-A2] (Eterna round: R96, puzzle: Same State NG 1) :: 20.3
GGAGCUGUUAUAGGAUAUCCCGCUCAUUACGCGGGAGAAGGGUGACGCUCACAUGAGGAUCACCCAUGUGGCGUUCCAAAAUAA [Reesti] (Eterna round: R96, puzzle: Same State NG 1) :: 12.6
AGAUCAUGACGAGGAUAUGGAACAUGAGGAUCACCCAUGUAUGUUCCAUAACGCGAACGACGAAUCCAGAAGGCGUCGUGGUCA [JL SSNG2 1.09] (Eterna round: R96, puzzle: Same State NG 2) :: 28.3
AGGAGUAUCUGACAUGAGGAUCACCCAUGUUCCAUUCUACGAUAGGAUAUCGAAAUACAAAGACGCGAGAAGGAUCAGAACCUA [Eternabot solution 48] (Eterna round: R96, puzzle: Same State NG 3) :: 26.8
GUAGCAUACCGAGGAUAUUCAUAACAUGAGGAUCACCCAUGUUAGGCCAGCAUUAGCUGGCCUUGGGAGAAGGCGGAAUGCUAC [Xeonanis - 20 Mod52] (Eterna round: R96, puzzle: Same State NG 2) :: 22.2

// for each sequence below, give its apparent KD of MS2 coat protein
1. ACCCAAAAUACAUGGGAACAAGCUUUUUAACAUGAGGAUCACCCAUGUACUCGUCUUAUAAGCAGUCGAAAGACUGC [hsa-mir-208a sensor: 113] (Eterna round: R96, puzzle: Sensor for hsa-mir-208a)
2. AACAGUCGGCGAGGAUAUGGACGUACGAACUUACCCGUGCGGCUCACAUGAGGAUCACCCAUGUUCUAGAAGGCGCCACUGAAA [Atbeon] (Eterna round: R96, puzzle: Same State NG 2)
3. AUAUGAGGAGCAGGAUAUGCGGAGAAGAAAGAAGCAGAAGGGCUCAUGGGACGACAUGAGGAUCACCCAUGUACUCCGCGAUGA [AK SSNG1-V2-5] (Eterna round: R96, puzzle: Same State NG 1)
4. GGAGCCGGCACUGAGGAUAUUCAUAUUAAAACAUGAGGAUCACCCAUGUAGGCCAGAAGGCCUUGGGAGAAGGCGGGUCGGCCCG [Bibimoar - 3] (Eterna round: R96, puzzle: Same State 2)

518
88.8
1350
258

The measured values listed here are drawn from the supplement of paper PMC9170038.
